- Test system: MV4-11
- assay-comment: Secondary dose-response HTS, Cell Titer Glo
- Format: cell-based, human
- condition-context: Homo sapiens, MV4-11; secondary HTS, 72 h, average of triplicate; read-out: EC50 MV4-11
test-readout: log10(EC50) (log10 of the value in nM)
Heads up: the numbers are on a log10 scale; they represent EC50 in nM.

Example cases with answers are listed next.
- compound: "O=C1c2c(O)ccc(O)c2C(=O)c2c(NCCNCCO)ccc(NCCNCCO)c21 [Mitoxantrone, reference compound]"
  target-entity: "MV4-11"
  log10(EC50): 0.00
- compound: "CC(C)C[C@H](NC(=O)[C@H](Cc1ccccc1)NC(=O)c1cnccn1)B(O)O [Bortezomib, reference compound]"
  target-entity: "MV4-11"
  log10(EC50): 0.30
- compound: "Cc1[nH]c2ccccc2c1CCNCc1ccc(/C=C/C(=O)NO)cc1 [Panobinostat, reference compound]"
  target-entity: "MV4-11"
  log10(EC50): 2.11
- compound: "Nc1nc(Cl)nc2c1ncn2[C@@H]1O[C@H](CO)[C@@H](O)[C@@H]1F [Clofarabine, clofarabine, reference compound]"
  target-entity: "MV4-11"
  log10(EC50): 2.18

Okay, next one:
Report log10(EC50) under test system MV4-11 for Cn1cc(CNCC2CCN(c3ncc(C(=O)NO)cn3)CC2)c2ccccc21 [Quisinostat, reference compound] .
1.00

Ref: paper PMC6522510
